# System: 786-O
# ASSAY DETAILS: Euclidean distance of Cell Painting phenotypic profile (signed KS, 77 features) to DMSO centroid (dimensionless distance); 5 or 10 uM (library dependent); higher = stronger phenotypic change vs DMSO (phenoactivity)
# RUN PARAMETERS: 48 h
compounds and their reported Euclidean distance
Give a plain numeric answer without units written out.

Check out these entries, answers already filled in.
COMPOUND | Euclidean distance
CC1C(=O)OC2C(O)C34C5CC(C(C)(C)C)C36C(OC(=O)C6O)OC4(C(=O)O5)C12O (stereo not given) [Ginkgolide B] | 0.999
CN(C/C=C/C#CC(C)(C)C)Cc1cccc2ccccc12 | 1.56
Nc1ncnc2c1ncn2[C@@H]1O[C@H](CO)[C@@H](O)[C@H]1O | 1.13
Nc1ncnc2c1c(-c1cnc3[nH]ccc3c1)nn2C1CCCC1 | 4.92

Below: the item to evaluate.
Query: GET /values?readout=Euclidean distance&item= CC(C)(Sc1cc(C(C)(C)C)c(O)c(C(C)(C)C)c1)Sc1cc(C(C)(C)C)c(O)c(C(C)(C)C)c1
Result: 0.793

====

# System: DU145
# ASSAY DETAILS: Euclidean distance of Cell Painting phenotypic profile (signed KS, 77 features) to DMSO centroid (dimensionless distance); 5 or 10 uM (library dependent); higher = stronger phenotypic change vs DMSO (phenoactivity)
# RUN PARAMETERS: 48 h
Structures can show the parent of a compound that is named as a salt.
Label Met when Euclidean distance is at or above 2; anything below gets Not met.

Some solved cases for reference:
MOLECULE | GROUP
O=C(Nc1cccc(Nc2ncc(Br)c(NCCc3cnc[nH]3)n2)c1)N1CCCC1 | Met
CO[C@H]1C[C@@H]2CC[C@@H](C)[C@@](O)(O2)C(=O)C(=O)N2CCCC[C@H]2C(=O)O[C@H]([C@H](C)C[C@@H]2CC[C@@H](OC(=O)C(C)(CO)CO)[C@H](OC)C2)CC(=O)[C@H](C)/C=C(\C)[C@@H](O)[C@@H](OC)C(=O)[C@H](C)C[C@H](C)/C=C/C=C/C=C/1C | Not met
C=CC(=O)Nc1cc2c(Nc3ccc(F)c(Cl)c3)ncnc2cc1OCCCN1CCOCC1 | Not met
CC(C(O)c1ccc(O)cc1)N1CCC(Cc2ccccc2)CC1 (configuration not stated) [Ifenprodil Tartrate] | Not met
CS(=O)(=O)c1ccc([C@@H](O)[C@@H](CO)NC(=O)C(Cl)Cl)cc1 | Not met
COc1ccc2[nH]c([S+]([O-])Cc3ncc(C)c(OC)c3C)nc2c1 (configuration not stated) [Omeprazole Sodium] | Met
C=CCn1c(=O)c2cnc(Nc3ccc(N4CCN(C)CC4)cc3)nc2n1-c1cccc(C(C)(C)O)n1 | Met
O=C(c1ccc(F)cc1)N1CCC[C@H](c2nc(-c3ccc(F)cc3)no2)C1 | Not met

Query: In plain terms: is recorded Euclidean distance at least 2 for O=C1Nc2ccc(I)cc2/C1=C/c1cc(Br)c(O)c(Br)c1 ?
Result: Not met

Query: In plain terms: is recorded Euclidean distance at least 2 for Cc1cccc(Nc2cc(Cl)nc(SCC(=O)O)n2)c1C ?
Result: Not met

Query: In plain terms: is recorded Euclidean distance at least 2 for COc1cnc(NS(=O)(=O)c2ccc(N)cc2)nc1 ?
Result: Not met

Query: In plain terms: is recorded Euclidean distance at least 2 for CC(=C(CCO)SSCC1CCCO1)N(C=O)Cc1cnc(C)nc1N (stereo in doubt) ?
Result: Not met

Query: In plain terms: is recorded Euclidean distance at least 2 for CN1CCc2c(c3ccccc3n2Cc2ccccc2)C1 [Mebhydrolin napadisylate] ?
Result: Not met

Query: In plain terms: is recorded Euclidean distance at least 2 for COc1cc(N2CCN(C)CC2)ccc1Nc1nccc(-c2cn(C)c3cnccc23)n1 ?
Result: Not met

Query: In plain terms: is recorded Euclidean distance at least 2 for Cc1ccc(=O)n(-c2ccccc2)c1 ?
Result: Not met

Query: In plain terms: is recorded Euclidean distance at least 2 for CC(CCc1ccccc1)NCC(O)c1ccc(O)c(C(N)=O)c1 (configuration not stated) [Labetalol HCl] ?
Result: Not met
